System: H. pylori
Assay: Anti H. pylori spectrum (MIC) by agar dilution method
Type: cell-based, Helicobacter pylori
Settings: Helicobacter pylori, clinical strain HP001, read-out: MIC
Experimental: MIC was determined using agar dilution assay following the CLSI® guidelines. Six clinical isolates and four standard strains were used for this study. Five microlitre of freshly grown 3-day old culture (˜1×10^8 CFU/mL) was streaked in plates containing 2-fold serial dilution of the compounds ranging […], and incubated under microaerophilic condition at 37° C. After 72 h, the plates were inspected visually for absence of growth to assess the MIC values. […]
Exam item: assign Satisfied to entries whose MIC is below 20 µg/mL and Not satisfied to entries at or above 20 µg/mL. Note that a value of exactly 20 µg/mL receives Not satisfied.

**Query** Strictly below 20 µg/mL: is that where MIC of `O=c1cc(-c2ccccc2)oc2cc(OCCCCN3CCCCC3)cc(O)c12` sits?
**Result** Not satisfied

**Query** And then `CN1CCN(CCCCCCOc2cc(O)c3c(=O)cc(-c4ccccc4)oc3c2)CC1` , what is it?
**Result** Satisfied
